Entries annotated with measured pIC50
biological target: human FPTase (Homo sapiens, UniProt P49354+P49356); construct: made in house; test: In vitro inhibition of human farnesyl-protein transferase ([3H]-FPP incorporation into Ras-CVIM); format: biochemical; settings: 100 nM Ras-CVIM, 30 min, read-out: IC50, inhibitory activity against human FPTase
pIC50: −log10 of the molar value.

COC1OC(OC)c2c1cc(O)c1c2O[C@@]2(C)CC[C@H]3C(C)(C)[C@@H](OC(C)=O)CC[C@]3(C)[C@H]2C1 (some centres unmarked): > 4.70

Shifting focus to the compound that follows.
Qu. Input CC(=O)O[C@H]1CC[C@]2(C)[C@H]3Cc4c(O)cc5c(c4O[C@@]3(C)CC[C@H]2C1(C)C)COC5=O , output reported pIC50.
Ans. > 4.70
